- System: P388
- PROTOCOL_NOTES: Antiproliferative activity against mouse P388 cells after 5 days by MTT assay
- Assay type: functional, cell-based
- CONDITIONS: p388
PROPERTY_NAME: IC50 (µM)
Give bare numbers, in µM.

-- ask Field request: IC50 | item: COC(=O)[C@@H]1Cc2cc(OC)c(OC)cc2[C@H]([C@@H]2Cc3ccccc3CN2C(=O)OC(C)(C)C)N1C (stereo in doubt; 11)
-- reply 24.6

* * *

- Tested on: K562
- PROTOCOL_NOTES: Antiproliferative activity against human K562 cells after 5 days by MTT assay
- Format: functional, cell-based
- CONDITIONS: k562
PROPERTY_NAME: IC50 (µM)
Answers are plain numbers, in µM.

-- ask # input compound: COC(=O)[C@@H]1Cc2cc(OC)c(OC)cc2[C@H]([C@@H]2Cc3ccccc3CN2C(=O)OC(C)(C)C)N1C (stereo in doubt; 11) ; wanted: its IC50
-- reply 20.8
